- TARGET SYSTEM: Mitogen-activated protein kinase kinase kinase 20 (Homo sapiens)
- ASSAY METHOD TEXT: Binding affinity to wild type partial length human ZAK (M1 to L331) expressed in bacterial expression system assessed as residual activity at 100 nM measured by Kinomescan assay
I'd appreciate it if you could supply Activity values for the items below.
Answers are plain numbers, in %.

# count of solved cases: 6
COMPOUND	RESULT UNITS	Activity
CCCS(=O)(=O)Nc1ccc(F)c(C(=O)c2c[nH]c3ncc(-c4ccccc4Cl)cc23)c1F	%	7.6
CCCS(=O)(=O)Nc1ccc(F)c(C(=O)c2c[nH]c3ncc(-c4cc5c(cc4Cl)OCO5)cc23)c1F	%	26
CCCS(=O)(=O)Nc1ccc(F)c(C(=O)c2c[nH]c3ncc(-c4cncnc4)cc23)c1F	%	3.5
CCCS(=O)(=O)Nc1ccc(F)c(C(=O)c2c[nH]c3ncc(-c4ccc5c(c4)OCO5)cc23)c1F	%	0.45
O=C(c1c(F)ccc(NS(=O)(=O)Cc2ccc(F)cc2)c1F)c1c[nH]c2ncc(-c3ccc(Cl)cc3)cc12	%	61
CCCS(=O)(=O)Nc1ccc(F)c(C(=O)c2c[nH]c3ncc(-c4ccc5c(c4)OCCO5)cc23)c1F	%	2.2

Need Activity for each of these compounds.
1. CCCS(=O)(=O)Nc1ccc(F)c(C(=O)c2c[nH]c3ncc(-c4ccccc4C)cc23)c1F
2. COc1ccc(-c2cnc3[nH]cc(C(=O)c4cccc(NS(=O)(=O)Cc5ccccc5)c4F)c3c2)c(Cl)c1
3. CCCS(=O)(=O)Nc1ccc(F)c(C(=O)c2c[nH]c3ncc(-c4ccc(F)cc4C)cc23)c1F

1: 6.9; 2: 87; 3: 14

Need Activity for each of these compounds.
1. CCCS(=O)(=O)Nc1ccc(F)c(C(=O)c2c[nH]c3ncc(-c4ncccn4)cc23)c1F
2. CCCS(=O)(=O)Nc1ccc(F)c(C(=O)c2c[nH]c3ncc(-c4cc5c(cc4Cl)OCCO5)cc23)c1F
3. O=C(c1cccc(NS(=O)(=O)Cc2ccccc2)c1F)c1c[nH]c2ncc(-c3ccc(Cl)cc3)cc12
4. CCCS(=O)(=O)Nc1ccc(F)c(C(=O)c2c[nH]c3ncc(-c4cccc(OC)c4)cc23)c1F
5. O=C(c1cccc(NS(=O)(=O)Cc2ccccc2)c1F)c1c[nH]c2ncc(-c3cc4c(cc3Cl)OCCO4)cc12

39
20
66
23
94

Need Activity for each of these compounds.
1. CCCS(=O)(=O)Nc1ccc(F)c(C(=O)c2c[nH]c3ncc(-c4ccc(OC)cc4OC)cc23)c1F
2. CCCS(=O)(=O)Nc1ccc(F)c(C(=O)c2c[nH]c3ncc(-c4ccc(F)cc4)cc23)c1F

[1.6, 0.9]

Need Activity for each of these compounds.
1. CCCS(=O)(=O)Nc1ccc(F)c(C(=O)c2c[nH]c3ncc(-c4ccc(OC)cc4C)cc23)c1F
2. O=C(c1cccc(NS(=O)(=O)Cc2ccccc2)c1F)c1c[nH]c2ncc(-c3cccnc3)cc12
3. COc1ncc(-c2cnc3[nH]cc(C(=O)c4cccc(NS(=O)(=O)Cc5ccccc5)c4F)c3c2)cn1
4. CCCS(=O)(=O)Nc1ccc(F)c(C(=O)c2c[nH]c3ncc(-c4cccc(F)c4)cc23)c1F
5. CCCS(=O)(=O)Nc1ccc(F)c(C(=O)c2c[nH]c3ncc(-c4cccc(Cl)c4)cc23)c1F

[13, 1.7, 38, 0.8, 2.2]

Need Activity for each of these compounds.
1. Oc1ccc(-c2ncnc3[nH]c4ccc(O)cc4c23)cc1
2. C#Cc1cnc2[nH]cc(C(=O)c3c(F)ccc(NS(=O)(=O)CCC)c3F)c2c1
3. CCCS(=O)(=O)Nc1ccc(F)c(C(=O)c2c[nH]c3ncc(-c4ccc(OC)cc4Cl)cc23)c1F

1. 84
2. 1.4
3. 18

Need Activity for each of these compounds.
1. CCS(=O)(=O)Nc1ccc(F)c(C(=O)c2c[nH]c3ncc(-c4ccc(Cl)cc4)cc23)c1F
2. CCCS(=O)(=O)Nc1ccc(F)c(C(=O)c2c[nH]c3ncc(-c4ccccc4)cc23)c1F
3. O=C(c1cccc(NS(=O)(=O)Cc2ccccc2)c1F)c1c[nH]c2ncc(-c3cc4c(cc3Cl)OCO4)cc12

1. 8.3
2. 0.5
3. 80

Need Activity for each of these compounds.
1. CS(=O)(=O)Nc1cccc(C(=O)c2c[nH]c3ncc(-c4ccc(Cl)cc4)cc23)c1F
2. O=C(c1c(F)ccc(NS(=O)(=O)Cc2cccc(F)c2)c1F)c1c[nH]c2ncc(-c3ccc(Cl)cc3)cc12
3. Cc1cccc(CS(=O)(=O)Nc2ccc(F)c(C(=O)c3c[nH]c4ncc(-c5ccc(Cl)cc5)cc34)c2F)c1

1: 27; 2: 36; 3: 64

Need Activity for each of these compounds.
1. CCCS(=O)(=O)Nc1ccc(F)c(C(=O)c2c[nH]c3ncc(-c4ccc(F)cc4Cl)cc23)c1F
2. CCCS(=O)(=O)Nc1ccc(F)c(C(=O)c2c[nH]c3ncc(-c4ccco4)cc23)c1F
3. CCCC(=O)Nc1ccc(F)c(C(=O)c2c[nH]c3ncc(-c4ccc(Cl)cc4)cc23)c1F
4. Cc1nc(NC(C)CO)c2c(n1)[nH]c1ccc(O)cc12 (stereo not given)
5. O=C(c1c(F)ccc(NS(=O)(=O)Cc2ccccc2)c1F)c1c[nH]c2ncc(-c3ccc(Cl)cc3)cc12

1: 19; 2: 2.1; 3: 78; 4: 81; 5: 30
